# assaySystem: unphosphorylated PDGFRβ kinase (uPDGFRβ, Seq. ID No. 3) (Homo sapiens)
# Sequence (P09619 557-1106): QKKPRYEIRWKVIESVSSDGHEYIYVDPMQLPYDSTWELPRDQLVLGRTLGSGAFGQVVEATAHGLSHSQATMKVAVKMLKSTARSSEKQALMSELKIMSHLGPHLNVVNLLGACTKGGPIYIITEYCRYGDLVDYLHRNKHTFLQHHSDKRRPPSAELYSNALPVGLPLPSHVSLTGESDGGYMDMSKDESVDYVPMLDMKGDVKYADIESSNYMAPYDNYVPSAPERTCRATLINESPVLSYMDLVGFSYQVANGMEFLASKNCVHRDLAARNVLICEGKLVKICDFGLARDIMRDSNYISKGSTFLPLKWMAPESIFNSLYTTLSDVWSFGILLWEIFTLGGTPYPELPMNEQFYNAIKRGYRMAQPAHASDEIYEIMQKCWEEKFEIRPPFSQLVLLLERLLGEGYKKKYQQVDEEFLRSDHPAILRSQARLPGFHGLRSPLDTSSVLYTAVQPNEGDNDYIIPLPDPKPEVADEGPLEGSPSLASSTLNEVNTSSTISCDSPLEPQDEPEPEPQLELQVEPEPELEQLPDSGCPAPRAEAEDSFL
# assayMethodText: uPDGFRβ kinase enzymatic assay (pyruvate kinase/lactate dehydrogenase coupled)
# conditionNotes: ATP 500 μM, rate 1.5 to 2.5 h
pIC50: −log10 of the molar value.
propertyName: pIC50

Worked cases, answers included:
                                   compound        result
0  Cc1nc(-n2nc(C(C)(C)C)[nH]c2=O)ccc1Oc1ccnc(NC(=O)C2CCN(C)CC2)c1 [Example 21]        < 6.00
1  Cc1nc(-n2nc(CC(C)C)[nH]c2=O)ccc1Oc1ccnc(-c2cnn(C)c2)c1 [Example 22]        < 6.00
2  Cc1cc(-n2nc(C(C)(C)C)[nH]c2=O)nc(C)c1Oc1ccnc(-c2cnn(C)c2)c1 [Example 33]  6.00 to 7.00
3  Cn1cc(-c2cc(Oc3ccc(-n4nc(Cc5ccc(F)cc5)[nH]c4=O)nc3)ccn2)cn1 [Example 3]  7.00 to 8.00
4  Cc1nc(-n2nc(C(C)(C)C)[nH]c2=O)ccc1Oc1ccnc(-c2cnn(CCO)c2)c1 [Example 18]        < 6.00
5  Cc1nc(-n2nc(Cc3ccccc3)[nH]c2=O)ccc1Oc1ccnc(-c2cnn(C)c2)c1 [Example 2]  6.00 to 7.00
6  CCC(C)(C)c1nn(-c2ccc(Oc3ccnc(-c4cnn(C)c4)c3)c(C)n2)c(=O)[nH]1 [Example 25]        < 6.00
7  Cc1nc(-n2cc(C(C)(C)C)[nH]c2=O)ccc1Oc1ccnc(-c2cnn(C)c2)c1 [Example 48]        < 6.00

We next turn to a different compound, shown below.
Inquiry: Given the compound Cc1cn(-c2cc(Oc3ccc(-n4nc(-c5ccc(F)cc5)[nH]c4=O)nc3C)ccn2)cn1 [Example 29] , what is its reported pIC50?
Reply text: < 6.00

* * *

Let's look at some compounds and their measured pIC50.
# assaySystem: unphosphorylated c-FMS kinase (uFMS, Seq. ID no. 1) (Homo sapiens)
# Sequence (P07333 538-972): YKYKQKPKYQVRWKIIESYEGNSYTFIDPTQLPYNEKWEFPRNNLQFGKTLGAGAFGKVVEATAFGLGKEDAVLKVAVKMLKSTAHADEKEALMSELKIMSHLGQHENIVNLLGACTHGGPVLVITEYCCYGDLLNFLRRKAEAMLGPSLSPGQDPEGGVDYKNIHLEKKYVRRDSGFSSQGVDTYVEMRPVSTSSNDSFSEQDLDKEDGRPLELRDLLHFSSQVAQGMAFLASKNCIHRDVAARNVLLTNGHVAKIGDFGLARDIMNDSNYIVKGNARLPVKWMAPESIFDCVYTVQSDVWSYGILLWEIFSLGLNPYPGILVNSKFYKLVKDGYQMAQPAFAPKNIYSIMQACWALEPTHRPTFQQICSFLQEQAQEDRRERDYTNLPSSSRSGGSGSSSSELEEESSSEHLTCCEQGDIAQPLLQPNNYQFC
# assayMethodText: uFMS kinase enzymatic assay (pyruvate kinase/lactate dehydrogenase coupled)
# conditionNotes: ATP 500 μM, rate 3 to 4 h
pIC50: −log10 of the molar value.

Observe how each entry below is paired with its result.
In [3]: df
Out[3]:
                                   compound        result
0  Cc1cn(-c2cc(Oc3ccc(-n4nc(C(C)(C)C)[nH]c4=O)nc3C)ccn2)cn1 [Example 19]  7.00 to 8.00
1  Cc1nc(-n2nc(Cc3ccc(F)cc3)[nH]c2=O)ccc1Oc1ccnc(-c2cnn(C)c2)c1 [Example 1]        ≥ 8.00
2  Cc1nc(-n2cc(C(C)(C)C)[nH]c2=O)ccc1Oc1ccnc(-c2cnn(C)c2)c1 [Example 48]  7.00 to 8.00
3  Cc1nc(-n2nc(CC(C)C)[nH]c2=O)ccc1Oc1ccnc(-c2cnn(C)c2)c1 [Example 22]        ≥ 8.00
4  Cc1nc(-n2nc(C(C)(C)C)[nH]c2=O)ccc1Oc1ccnc(-c2ccc(N3CCN(C)CC3)nc2)c1 [Example 40]  7.00 to 8.00
5  Cc1ncc(-c2cc(Oc3ccc(-n4nc(C(C)(C)C)[nH]c4=O)nc3C)ccn2)s1 [Example 12]  7.00 to 8.00
6  Cc1nc(-n2nc(C(C)(C)C)[nH]c2=O)ccc1Oc1ccnc(NC(=O)C2CCN(C)CC2)c1 [Example 21]  6.00 to 7.00
7  Cc1cc(-c2cc(Oc3ccc(-n4nc(C(C)(C)C)[nH]c4=O)nc3C)ccn2)ccn1 [Example 9]  7.00 to 8.00

Inquiry: Return reported pIC50; argument: Cc1cn(-c2cc(Oc3ccc(-n4nc(-c5ccc(F)cc5)[nH]c4=O)nc3C)ccn2)cn1 [Example 29]
Reply text: 7.00 to 8.00

Inquiry: Please do the same for Cn1cc(-c2cc(Oc3ccc(-n4nc(Cc5ccc(F)cc5)[nH]c4=O)nc3)ccn2)cn1 [Example 3] as well.
Reply text: ≥ 8.00

Values were extracted from patent US9193719B2.
